System: SF-295
Method Description: NCI tumour cell line growth inhibition, 48 h
The source made the active and inactive calls. Cut-off read from the data, not from the text of the source: active = GI50 up to about 1.1 µM and inactive = higher.
Outcomes: true (1) = active, false (0) = inactive

Molecule: COc1cc2c(c3nc4ccccc4nc13)-c1ccc(SC)c(=O)cc1[C@@H](NC(C)=O)CC2
Cat: true (1)

Molecule: CS(=O)(=O)CCC(N)P(=O)(O)O (stereo not drawn)
Cat: false (0)

Molecule: COC(=O)/C([Se]c1c(C)cc(C)cc1C)=C(/[Se]c1c(C)cc(C)cc1C)C(=O)OC
Cat: false (0)

Molecule: O=C(OC1C#CCSCC#C/C=C\1)c1ccc2c(c1)C(=O)c1ccccc1C2=O (stereo not drawn)
Cat: false (0)

Molecule: Cc1ccc(/N=N/c2ccc(O)c(CN(C)C)c2)cc1C
Cat: false (0)

Molecule: N=c1c2c3n(c4c(=O)n(-c5ccccc5)c(=S)n(c(=O)n1-c1ccccc1)c24)CCCCC3
Cat: false (0)

Molecule: O=C(CN1c2ccccc2Sc2ccccc21)n1cnc2ccccc21
Cat: false (0)

Molecule: Cc1ccc(SCN2CCCCC2)cc1.O=C(Cl)c1ccc([N+](=O)[O-])cc1
Cat: false (0)
